Values compiled from patent US20060148772A1.

# Tested on: ER-α-mediated transcription
# Method description: ERα transactivation luciferase reporter assay (pEREtkIIluc)
# Format: cell-based, Human
# Assay conditions: ER+ cell lines
Parameter measured: ER-α-mediated transcription

chemical_string=CC/C(=C(\c1ccccc1)c1ccc(OCCN(C)C)cc1)c1ccccc1 parameter_measured="ER-α-mediated transcription" recorded_measurement=inhibited
chemical_string=N#Cc1ccc(C(c2ccc(C#N)cc2)n2cncn2)cc1 parameter_measured="ER-α-mediated transcription" recorded_measurement=inhibited

---

# Tested on: BT474 (ER+, HER2++)
# Method description: Proliferation assay, aromatase expressing BT474 clones
# Assay type: cell-based, Human
# Assay conditions: Homo sapiens, BT-474; effect on proliferation, fold change compared to DCC medium alone
pIC50: −log10 of the molar value.
Parameter measured: pIC50

chemical_string=CCN1CCN(Cc2ccc(-c3cc4c(N[C@H](C)c5ccccc5)ncnc4[nH]3)cc2)CC1 parameter_measured=pIC50 recorded_measurement=6.30
